System: velvetleaf (Abutilon theophrasti)
Assay: Test B pre-/postemergence
Type: in vivo
Conditions: Rate 500 g/ha, Postemergence
quantity_kind: Plant response rating, Velvetleaf

query_smiles=Cc1cnc(-c2ccc(Cl)cc2)nc1Cn1ccc(C(F)(F)F)n1 target_or_test_system="velvetleaf (Abutilon theophrasti)" quantity_kind="Plant response rating, Velvetleaf" value_reported=8
query_smiles=Cc1cnc(-c2ccc(C(F)(F)F)cc2)nc1Cn1ccc(C(F)(F)C(F)(F)F)n1 target_or_test_system="velvetleaf (Abutilon theophrasti)" quantity_kind="Plant response rating, Velvetleaf" value_reported=4
query_smiles=Cc1cnc(-n2cnc(C(F)(F)F)n2)nc1C(=O)c1cccc(OC(F)(F)F)c1 target_or_test_system="velvetleaf (Abutilon theophrasti)" quantity_kind="Plant response rating, Velvetleaf" value_reported=9
query_smiles=Cc1cnc(-c2ccc(C(F)(F)F)cc2)nc1Cn1ccc(C(F)(F)F)n1 target_or_test_system="velvetleaf (Abutilon theophrasti)" quantity_kind="Plant response rating, Velvetleaf" value_reported=9
query_smiles=Cc1cnc(-c2ccccc2)nc1Cn1ccc(C(F)(F)F)n1 target_or_test_system="velvetleaf (Abutilon theophrasti)" quantity_kind="Plant response rating, Velvetleaf" value_reported=2

---

System: giant foxtail (Setaria faberii)
Assay: Test B pre-/postemergence
Type: in vivo
Conditions: Rate 62 g/ha, Postemergence
// reported Plant response rating, Giant foxtail for each item listed
quantity_kind: Plant response rating, Giant foxtail

compound=Cc1cnc(-c2ccccc2F)nc1Cc1cccc(C(F)(F)F)c1 quantity_kind="Plant response rating, Giant foxtail" value_reported=1
compound=CCc1cnc(-n2cnc(C(F)(F)F)c2)nc1Cc1cccc(OC(F)(F)F)c1 quantity_kind="Plant response rating, Giant foxtail" value_reported=2
compound=Cc1cnc(-c2ccc(C(F)(F)F)cc2)nc1Cc1cccc(OC(F)(F)F)c1 quantity_kind="Plant response rating, Giant foxtail" value_reported=7
compound=Cc1cnc(-c2ccc(Cl)cc2F)nc1Cc1cccc(C(F)(F)F)c1 quantity_kind="Plant response rating, Giant foxtail" value_reported=3
compound=Cc1cnc(-n2ccc(C(F)(F)F)n2)nc1Cn1ccc(C(F)(F)F)n1 quantity_kind="Plant response rating, Giant foxtail" value_reported=7
compound="Cc1cnc(-c2ccc(C(F)(F)F)cc2)nc1C(C)c1cccc(C(F)(F)F)c1 (racemic)" quantity_kind="Plant response rating, Giant foxtail" value_reported=0
compound=Cc1cnc(-c2ccc(C(F)(F)F)cc2)nc1Cn1cc(I)cn1 quantity_kind="Plant response rating, Giant foxtail" value_reported=2
compound=COc1cnc(-n2ccc(C(F)(F)F)n2)nc1Cc1cccc(C(F)(F)F)c1 quantity_kind="Plant response rating, Giant foxtail" value_reported=0
compound=CCc1cnc(-n2ccc(C(F)(F)F)n2)nc1Cc1cccc(OC(F)(F)F)c1 quantity_kind="Plant response rating, Giant foxtail" value_reported=4

---

Tested on: hairy beggarticks (Bidens pilosa)
Test: Test C
Format: in vivo
Parameters: key: 0 was no effect; 100 was complete control
Conditions: PREEMERGENCE, Rate 140 g/ha
Consider the following molecules and their measured Plant response rating, H. beggarticks readings.
quantity_kind: Plant response rating, H. beggarticks

molecule="COc1cnc(-c2ccc(C(F)(F)F)cc2)nc1Cc1cccc(C(F)(F)F)c1 [Compound 23]" value_reported=100
molecule="Cc1cnc(-n2ccc(C(F)(F)F)n2)nc1Cn1ccc(C(F)(F)F)n1 [Compound 52]" value_reported=30
molecule="Cc1cnc(-n2ccc(C(F)(F)F)n2)nc1C(=O)c1cccc(OC(F)(F)F)c1 [Compound 66]" value_reported=0
molecule="Cc1cnc(-n2cnc(C(F)(F)F)n2)nc1Cc1cccc(C(F)(F)F)c1 [Compound 43]" value_reported=100
